Values compiled from patent US20240132431A1.

Can you tell me ASMS ratio (%) for the items I'm about to list?
molecular target: Bcl-2 protein (Recombinant Human Bcl-2 Protein) (Homo sapiens); construct: purchased Novus NBP2-34889; assay: Binding evaluation of mixture library compounds to Bcl-2 using AS-MS (affinity selection mass spectrometry); settings: n = 1
Expressed in %, but write only the number.

IN: Form field: reported ASMS ratio (%) of "CCOc1cncc(-c2csc(CN3CCN(c4ccc(C(=O)NS(C)(=O)=O)cc4)CC3)c2)c1"
OUT: 0.0

IN: Form field: reported ASMS ratio (%) of "CCOc1cncc(-c2ccccc2CN2CCN(c3ccc(C(=O)NS(=O)(=O)c4ccc(NCCSc5ccccc5)c(C(F)(F)F)c4)cc3)CC2)c1"
OUT: −0.2

IN: Form field: reported ASMS ratio (%) of "CCOc1cccc(-c2cc(CN3CCN(c4ccc(C(=O)NS(C)(=O)=O)nn4)CC3)cc(OC(F)(F)F)c2)c1"
OUT: 1.4

IN: Form field: reported ASMS ratio (%) of "CCOc1cccc(-c2cc(CN3CCN(c4ccc(C(=O)NS(C)(=O)=O)nn4)CC3)cc(OCC)c2)c1"
OUT: 0.0

###

Can you tell me ASMS ratio (%) n = 2 for the items I'm about to list?
biological target: Bcl-2 protein (Recombinant Human Bcl-2 Protein) (Homo sapiens, UniProt P10415); construct: purchased Novus NBP2-34889; assay: Binding evaluation of mixture library compounds to Bcl-2 using AS-MS (affinity selection mass spectrometry); conditions: AS-MS on the mixture of 1200 library compounds; ASMS Ratio(%)=(A−C)/B×100; replicate n = 2
Sequence (P10415 whole entry): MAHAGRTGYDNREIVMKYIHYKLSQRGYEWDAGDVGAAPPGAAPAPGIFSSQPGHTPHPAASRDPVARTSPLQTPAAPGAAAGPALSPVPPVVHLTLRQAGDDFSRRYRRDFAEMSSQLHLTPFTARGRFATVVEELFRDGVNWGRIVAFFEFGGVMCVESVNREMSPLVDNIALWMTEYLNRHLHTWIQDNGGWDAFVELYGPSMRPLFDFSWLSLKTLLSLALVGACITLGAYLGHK

IN: Form field: reported ASMS ratio (%) n = 2 of "CCOc1cncc(-c2cc(CN3CCN(c4ccc(C(=O)Nc5ccc(OC)cc5)cc4)CC3)cc(OCC)c2)c1"
OUT: −0.9%

IN: Form field: reported ASMS ratio (%) n = 2 of "CCOc1cncc(-c2csc(C(=O)N3CCN(c4ccc(C(=O)N(C)CC56CC7CC(CC(C7)C5)C6)nn4)CC3)c2)c1"
OUT: −1.2%

IN: Form field: reported ASMS ratio (%) n = 2 of "CCOc1cncc(-c2cc(CN3CCN(c4ccc(C(=O)N(C)CC56CC7CC(CC(C7)C5)C6)nn4)CC3)cc(OC(F)(F)F)c2)c1"
OUT: −0.2%

IN: Form field: reported ASMS ratio (%) n = 2 of "CCOc1cncc(-c2ccccc2CN2CCN(c3ccc(C(=O)Nc4ccc(OC)cc4)cc3)CC2)c1"
OUT: 1.3%

###

Can you tell me ASMS ratio (%) for the items I'm about to list?
target: Bcl-2 protein (Recombinant Human Bcl-2 Protein) (Homo sapiens, UniProt P10415); construct: purchased Novus NBP2-34889; experiment: Binding evaluation of mixture library compounds to Bcl-2 using AS-MS (affinity selection mass spectrometry); settings: n = 1

IN: Form field: reported ASMS ratio (%) of "CCOc1cccc(-c2cc(C(=O)N3CCN(c4ccc(C(=O)NS(=O)(=O)c5ccc(NCCSc6ccccc6)c(C(F)(F)F)c5)cc4)CC3)cc(C(F)(F)F)c2)c1"
OUT: 9.7%

IN: Form field: reported ASMS ratio (%) of "CCOc1cccc(-c2ccc(CN3CCN(c4ccc(C(=O)NS(=O)(=O)C(C)(C)C)nn4)CC3)cc2F)c1"
OUT: 0.0%

IN: Form field: reported ASMS ratio (%) of "CCOc1cccc(-c2cc(CN3CCN(c4ccc(C(=O)NS(C)(=O)=O)nn4)CC3)cc(OC(C)C)c2)c1"
OUT: 0.0%

IN: Form field: reported ASMS ratio (%) of "CCOc1cccc(-c2csc(CN3CCN(c4ccc(C(=O)NS(=O)(=O)C(C)(C)C)cc4)CC3)c2)c1"
OUT: 0.0%

IN: Form field: reported ASMS ratio (%) of "CCOc1cncc(C#Cc2cncc(C(=O)N3CCN(c4ccc(C(=O)NS(=O)(=O)C(C)(C)C)cc4)CC3)c2)c1"
OUT: 0.0%

IN: Form field: reported ASMS ratio (%) of "CCOc1cccc(-c2ccc(C(=O)N3CCN(c4ccc(C(=O)NS(=O)(=O)C(C)(C)C)cc4)CC3)cc2C)c1"
OUT: 0.0%

IN: Form field: reported ASMS ratio (%) of "CCOc1cncc(-c2cc(CN3CCN(c4ccc(C(=O)NS(=O)(=O)C(C)(C)C)nn4)CC3)cc(OCC)c2)c1"
OUT: 2.6%
